As an illustration, consider measured AC50 for compounds on Cytochrome P450 3A4 (Homo sapiens, UniProt P08684).
Sequence (P08684 whole entry): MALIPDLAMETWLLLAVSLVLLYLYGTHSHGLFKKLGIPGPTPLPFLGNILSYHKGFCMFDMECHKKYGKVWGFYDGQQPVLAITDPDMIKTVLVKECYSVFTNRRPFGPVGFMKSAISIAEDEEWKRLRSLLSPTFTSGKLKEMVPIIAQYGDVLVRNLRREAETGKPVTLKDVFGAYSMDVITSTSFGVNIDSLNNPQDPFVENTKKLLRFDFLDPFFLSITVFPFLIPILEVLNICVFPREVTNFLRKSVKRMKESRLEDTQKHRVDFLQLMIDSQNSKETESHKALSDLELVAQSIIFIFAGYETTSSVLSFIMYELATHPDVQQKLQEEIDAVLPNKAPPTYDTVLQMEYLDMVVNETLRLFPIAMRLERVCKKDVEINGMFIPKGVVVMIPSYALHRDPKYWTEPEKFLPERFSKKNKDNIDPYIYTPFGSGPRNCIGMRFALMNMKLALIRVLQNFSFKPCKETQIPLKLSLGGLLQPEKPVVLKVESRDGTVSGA

Example results:
compound: CCCCOC(=O)CSc1nnc(-c2cc(OC)c(OC)c(OC)c2)o1
result: 25.1 µM (inconclusive)
--
compound: Cc1ccccc1-c1ccc2ncnc(N3CCNCC3)c2c1
result: 15.8 µM (inconclusive)
--
compound: CS(=O)(=O)N1CCC2(CC1)CN(c1ncccn1)C2
result: 20 µM (inconclusive)
--
compound: Cc1cc(C)c2c(-n3cccc3)nn(CC#N)c2n1
result: 15.8 µM (inconclusive)
--
compound: CCOC(=O)c1sc(NC(=O)CCCCCN2C(=O)c3cccc4cccc(c34)C2=O)nc1C
result: 5.01 µM (inconclusive)

API: the following record is the query input.
So for CCC(O)CNc1nc(-n2nc(C)cc2C)nc2sc3c(c12)CC(C)(C)OC3 (stereo unspecified) , the logged AC50 turned out to be 7.08 µM (inconclusive)
